substrate: Oc1ccccc1O; test: purified protein; conditions: 0.1 M PBS pH 7.5, 25 °C, O2 co-substrate (air), Fe enzyme, kcat corrected for iron content
ENDPOINT: kcat/Km (M⁻¹ s⁻¹)
Please respond with the number in M⁻¹ s⁻¹ and leave the unit unwritten.

Solved entries (count: 4):
[[record]]
protein = "TuDOG11 (Tetranychus urticae) (protein, signal peptide removed, N-terminal 6xHis kept, pJExpress 411, E. coli BL21(DE3), codon optimized (ATUM), 25-37 kDa) HLQRPGKFLPHDRSIVDCARYKREANQHTCVLAPFTTEGPYFLPDDLERSDITDGQTGVNLDLNLKLTNAKDCSPLSNYFVHVWQANALGHYSGVNELFPVGFRPKPISGERFLRGYQKTNEDGEVNFKTIIPGWYVGRCIHIHVEVYAKNNTDGNAVNYIGQLYFERDIPSSLRLVEPYSTNVNEITLNDSDGVYLLTHGNDTLIDLVPQESGFRTDYIVAIDPDVSIKYDWLDI"
endpoint = "kcat/Km"
units = "M⁻¹ s⁻¹"
result_value = 817

[[record]]
protein = "TuDOG7 (Tetranychus urticae) (protein) ERSIEILNHDATVIDCARYKREANQHKCVITPFTTEGPYFLPDDYERSDITDGYTGVNLNLTLLLTNAKDCSPLSNYYVHIWNANAMGHYSGVKEFNFFDHPTFRPKPINNLRFLRGYQITNEDGLVNFNTIIPGWYFGRCIHIHVEIYDKNTTDGHAVSYIGQLYFNREMPAALKLIDPYSQNNNELTLNDQDIVFALSRGSDTILELIPEGNGYSASYVLSIDPTVKVENSVLPFEDPRNVSFIEH"
endpoint = "kcat/Km"
units = "M⁻¹ s⁻¹"
result_value = 300

[[record]]
protein = "TuDOG15 (Tetranychus urticae) (protein) DHERPGKYLEHDSTVINCARYKREANQHSCVLAPYAVEGPYFLPDDLERSNLAEDKVGVSLDLAIRLVNSNDCTPLTNMFVHVWHADALGVYSGVPDLAELFVERMRQENKTLPPFWGPEGAYEGRRPGGPGGPGGPGGPGGPGDMEMPGRPTPVNNERFLRGYQVTNEAGEVNFKTIIPGWYTGRSLHIHVEVYSKNTTEPGEVNYIGQIFFKDDLPAELKLIEPYSLNQNILVLNPQDGIYNFAHGEQTKIQLENRETGYFGSMTFGINPNAH"
endpoint = "kcat/Km"
units = "M⁻¹ s⁻¹"
result_value = 150

[[record]]
protein = "TuDOG16 (Tetranychus urticae) (protein, signal peptide removed, N-terminal 6xHis kept, pJExpress 411, E. coli BL21(DE3), codon optimized (ATUM), 25-37 kDa) HSERPGKFLEHDRSIVNCARYKREANQHTCVLAPFATEGPYFLADDLERSDITDGQTGVNLDLNLKLTNAKDCSPLSGYFVHIWNANALGHYSGVQEFNKFPKQTFRPKPIYDTRWLRGYQVTNEDGEVNFKTIVPGWYYGRCLHIHVEVYSKNTTDTNAITYIGQLYFKRELPVQLKLVEPYSSNQNELKFNEQDKVFNGMHGNDTITELVFEENNAKTSFILALDPTVTTLTNGTVVN"
endpoint = "kcat/Km"
units = "M⁻¹ s⁻¹"
result_value = 150


// below: kcat/Km requested for another protein
[in] Could you tell me which kcat/Km is on file for TuDOG1 (Tetranychus urticae) (protein, signal peptide removed, N-terminal 6xHis kept, pJExpress 411, E. coli BL21(DE3), codon optimized (ATUM), 25-37 kDa) DVHRRGKFLPHDRTVINCASLNRKAHQHSSVLAPFTTEGPFFLPDDLKRSDITDGQKGIPLELTIKLTNAKDCTPISNFFIHAWQTNATGVYSGIDEDTAPLSGFRPTPVNRDRSLRGYQETDANGEVKFLTILPGWYSGRAIHIHIEVYAKDITDENKITYIGQFYFEHDFPLKLRKIYPYSTNTQRIIFNEQDYYYVHDHGDETTLDLKHNGAKFSSYATVAIDPTVTVHVQ ?
[out] 2480
